Would you mind telling me the reported pKd of each entry?
targetOrSystem: T1, beta-catenin Armadillo domain, residues 134-665 (human, UniProt P35222 134-665, biotinylated through the N-terminal yBBr tag for SPR; tag cleaved off for crystallography)
T1 construct: also called β-catenin; CTNNB1
T1 sequence: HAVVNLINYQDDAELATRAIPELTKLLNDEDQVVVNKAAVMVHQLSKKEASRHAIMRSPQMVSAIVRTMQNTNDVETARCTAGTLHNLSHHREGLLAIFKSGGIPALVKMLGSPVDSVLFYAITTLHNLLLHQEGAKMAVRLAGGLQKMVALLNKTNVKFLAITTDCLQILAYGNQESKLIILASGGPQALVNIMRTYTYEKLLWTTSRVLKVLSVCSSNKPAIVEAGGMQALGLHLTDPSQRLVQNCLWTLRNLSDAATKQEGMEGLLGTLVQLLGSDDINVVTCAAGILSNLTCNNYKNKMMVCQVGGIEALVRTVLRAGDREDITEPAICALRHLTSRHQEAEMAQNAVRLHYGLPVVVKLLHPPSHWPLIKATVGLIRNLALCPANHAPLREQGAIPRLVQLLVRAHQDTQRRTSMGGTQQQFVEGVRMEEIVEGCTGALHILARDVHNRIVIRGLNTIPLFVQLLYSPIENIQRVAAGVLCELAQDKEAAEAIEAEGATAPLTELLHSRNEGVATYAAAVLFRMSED
assayProcedure: SPR, alanine-scanning table
Bridge positions count the residues as written; N and C are the ends.
The quantity pKd is defined as the negative base-10 logarithm of the molar concentration.

Prompt: Reported pKd, binder Ac-DPATHRCEWAALHCALV-NH2 (bridge 7-14; not fully specified (bridges); printed as Ac-DPATHRCEWAALHCALV-NH2, also called E-to-A (after the second Cys) member of the alanine-scanning series of FP01567) [FP49257] : ____
Response: 6.00

Prompt: Reported pKd, binder Ac-DPATARCEWAALHCELV-NH2 (bridge 7-14; not fully specified (bridges); printed as Ac-DPATARCEWAALHCELV-NH2, also called H-to-A member of the alanine-scanning series of FP01567) [FP49251] : ____
Response: 6.40

Prompt: Reported pKd, binder Ac-DPATHACEWAALHCELV-NH2 (bridge 7-14; not fully specified (bridges); printed as Ac-DPATHACEWAALHCELV-NH2, also called R-to-A member of the alanine-scanning series of FP01567) [FP49252] : ____
Response: 6.52

Prompt: Reported pKd, binder Ac-DPATHRCAWAALHCELV-NH2 (bridge 7-14; not fully specified (bridges); printed as Ac-DPATHRCAWAALHCELV-NH2, also called E-to-A member of the alanine-scanning series of FP01567) [FP49253] : ____
Response: 5.57
